# assay_comment: Plasma pharmacokinetics after intravenous 36 in mice (LC/MS/MS)
# Format: in vivo, CD-1 mice (nu/+ heterozygotes)
# stated_conditions: CD-1 (nu/+ heterozygotes), mouse, intravenous, 42.1 μmol/kg; 35 derived from 36, plasma, mice
readout_type: AUC

Exercise: Give the measured AUC of CN(C)CCOc1ccc2[nH]c(C(=O)N3CC(CCl)c4c3cc([N+](=O)[O-])c3cc(S(=O)(=O)NCCO)ccc43)cc2c1 (stereo not shown) .
Key: ~11.7 µM·h

###

# Test system: HT29: human colon cancer cell line
# assay_comment: Proliferation IC50 assay, oxic/hypoxic, HT29
# Assay type: cell-based
# stated_conditions: Homo sapiens, HT-29; Table 3; 4 h exposure under aerobic conditions
Would you kindly list IC50 for each of these compounds?
A complete answer gives the number followed by the unit.

Exercise: Give the measured IC50 of COc1cc2cc(C(=O)N3CC(CCl)c4c3cc([N+](=O)[O-])c3cc(S(N)(=O)=O)ccc43)[nH]c2c(OC)c1OC (stereo not shown) .
Key: 43 µM

Exercise: Give the measured IC50 of CN(C)CCOc1ccc2[nH]c(C(=O)N3CC(CCl)c4c3cc([N+](=O)[O-])c3cc(N)ccc43)cc2c1 (stereo not shown) .
Key: 1.8 µM

Exercise: Give the measured IC50 of COc1cc2cc(C(=O)N3CC(CCl)c4c3cc([N+](=O)[O-])c3c(C(C)=O)cccc43)[nH]c2c(OC)c1OC (stereo not shown) .
Key: 0.68 µM

Exercise: Give the measured IC50 of CN(C)CCOc1ccc2[nH]c(C(=O)N3CC(CCl)c4c3cc([N+](=O)[O-])c3cc(S(=O)(=O)NN)ccc43)cc2c1.Cl.Cl (stereo not shown) [Compound 31, dihydrochloride] .
Key: 31 µM

###

Structures can show the parent of a compound that is named as a salt.
readout_type: melting point

Exercise: Give the measured melting point of COc1ccc(/C=C/C(=O)N2CC(CCl)c3c2cc([N+](=O)[O-])c2cc(C(=O)NCCO)ccc32)cc1 (centres unmarked) .
Key: 240 to 241 °C

Exercise: Give the measured melting point of COc1ccc(/C=C/C(=O)N2CC(CCl)c3c2cc([N+](=O)[O-])c2cc(S(N)(=O)=O)ccc32)cc1O (centres unmarked) .
Key: 220 to 225 °C

Exercise: Give the measured melting point of CN(C)CCOc1ccc2[nH]c(C(=O)N3CC(CCl)c4c3cc([N+](=O)[O-])c3c(C#N)cccc43)cc2c1 (centres unmarked) .
Key: > 300 °C

Exercise: Give the measured melting point of NS(=O)(=O)c1ccc2c3c(cc([N+](=O)[O-])c2c1)N(C(=O)c1cc2cc(OCCOP(=O)(O)O)ccc2[nH]1)CC3CCl (centres unmarked) .
Key: 207 to 211 °C

Exercise: Give the measured melting point of CN(C)CCOc1ccc2[nH]c(C(=O)N3CC(CCl)c4c3cc([N+](=O)[O-])c3cc(C#N)ccc43)cc2c1 (centres unmarked) (as salt: HCl) .
Key: > 300 °C

Exercise: Give the measured melting point of CNS(=O)(=O)c1ccc2c3c(cc(N)c2c1)N(C(=O)c1cc2cc(OCCN(C)C)ccc2[nH]1)CC3CCl (centres unmarked) .
Key: 260 to 265 °C (dec.)

Exercise: Give the measured melting point of COC(=O)c1ccc2c3c(cc(N)c2c1)N(C(=O)c1cc2cc(OCCN(C)C)ccc2[nH]1)CC3CCl (centres unmarked) .
Key: 225 to 230 °C

Exercise: Give the measured melting point of CN(C)CCOc1ccc2[nH]c(C(=O)N3CC(CCl)c4c3cc([N+](=O)[O-])c3cc([N+](=O)[O-])ccc43)cc2c1 (centres unmarked) (as salt: HCl) .
Key: 263 to 264 °C

Exercise: Give the measured melting point of COc1ccc(/C=C/C(=O)N2CC(CCl)c3c2cc([N+](=O)[O-])c2cc(S(=O)(=O)NCCO)ccc32)cc1 (centres unmarked) .
Key: 250 to 251 °C

Exercise: Give the measured melting point of CN(C)CCOc1ccc2[nH]c(C(=O)N3CC(CCl)c4c3cc([N+](=O)[O-])c3ccc(S(C)(=O)=O)cc43)cc2c1 (centres unmarked) (as salt: HCl) .
Key: > 300 °C

Exercise: Give the measured melting point of CN(C)CCOc1ccc2[nH]c(C(=O)N3CC(CCl)c4c3cc([N+](=O)[O-])c3ccc(C(N)=O)cc43)cc2c1 (centres unmarked) (as salt: TFA) .
Key: > 320 °C
